- target_system: T1, cynomolgus soluble urokinase plasminogen activator receptor (suPAR) (cynomolgus, UniProt Q9GK78 23-303, limits assumed)
- T1 construct: Column head says only 'cynomologus'; also called cynomolgus suPAR; cynomolgus uPAR
- T1 sequence (Q9GK78 23-303 limits assumed): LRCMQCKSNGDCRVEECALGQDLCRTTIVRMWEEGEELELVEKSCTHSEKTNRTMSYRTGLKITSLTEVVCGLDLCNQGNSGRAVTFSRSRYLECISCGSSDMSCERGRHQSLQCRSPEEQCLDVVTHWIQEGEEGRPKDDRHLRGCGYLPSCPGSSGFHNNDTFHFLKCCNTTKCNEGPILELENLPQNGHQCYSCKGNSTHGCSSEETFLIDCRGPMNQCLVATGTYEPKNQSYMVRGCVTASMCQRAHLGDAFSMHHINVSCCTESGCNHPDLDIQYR
- protocol_details: BLI (Octet) off-rate screen of scFv clones
quantity_kind: koff (s⁻¹)
Your answer is read as s⁻¹, so omit the unit and give the number.

Just so you know, measured koff for suPAR_DB02_E12 (scFv, V domains shown, scFv clone from phage display) VH: QVQLVQSGAEVKKPGASVKVSCKASGYTFTSNYMHWVRQAPGQGLEWMGWIDHENGNTIYDQKFQGRVTMTRDTSTSTVYMELSSLRSEDTAVYYCARGYDVDWFVYWGQGTLVTVSS VL: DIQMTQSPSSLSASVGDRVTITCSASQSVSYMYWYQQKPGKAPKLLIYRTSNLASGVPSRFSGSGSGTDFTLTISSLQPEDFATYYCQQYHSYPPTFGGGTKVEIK came out at 0.000215

Just so you know, measured koff for suPAR_DB02_C06 (scFv, V domains shown, scFv clone from phage display) VH: QVQLVQSGAEVKKPGASVKVSCKASGFNITDYYMHWVRQAPGQGLEWMGWIDHENGNTIYDQKFQGRVTMTRDTSTSTVYMELSSLRSEDTAVYYCARGYDVDWFVYWGQGTLVTVSS VL: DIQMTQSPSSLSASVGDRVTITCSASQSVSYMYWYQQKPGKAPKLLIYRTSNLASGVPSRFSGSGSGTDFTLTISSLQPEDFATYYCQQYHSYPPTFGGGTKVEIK came out at 0.000141

// sample suPAR_DB02_G01 (scFv, V domains shown, scFv clone from phage display) VH: QVQLVQSGAEVKKPGASVKVSCKASGHTFTDYYMHWVRQAPGQGLEWMGWISPNSGGTNYAQKFQGRVTMTRDTSTSTVYMELSSLRSEDTAVYYCARGYDVDWFVYWGQGTLVTVSS VL: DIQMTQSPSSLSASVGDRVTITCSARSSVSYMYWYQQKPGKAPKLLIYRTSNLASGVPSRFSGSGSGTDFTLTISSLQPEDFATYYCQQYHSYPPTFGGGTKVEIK , its koff was 5.19e-05
